Data provenance is the supplement of paper PMC13380429.

Tested on: Vero E6 infected with SARS-CoV-2
procedure.details: inhibition of SARS-CoV-2 cytopathic effect; higher = more antiviral protection, active = above 15
test.settings: 833.33 nM; 48 h
recorded.metric: inhibition of SARS-CoV-2 cytopathic effect (%)
Your answer should be a plain number; it is taken to be in %.

Query block: Entry under review: `CC(C)CN(C[C@@H](O)[C@H](Cc1ccccc1)NC(=O)O[C@H]1CO[C@H]2OCC[C@H]21)S(=O)(=O)c1ccc(N)cc1` . Reported inhibition of SARS-CoV-2 cytopathic effect?
Result block: 0.44

Query block: Entry under review: `CCOC(=O)c1ccc(C#Cc2ccc3c(c2)C(C)(C)CCS3)nc1` . Reported inhibition of SARS-CoV-2 cytopathic effect?
Result block: 3.69

Query block: Entry under review: Cc1c(NC(=O)c2cc3c(s2)CCCC3)cccc1-c1cn(C)c(=O)c(Nc2ccc(C3C(=O)N(C)CCN3C)cc2)n1 (stereo in doubt) . Reported inhibition of SARS-CoV-2 cytopathic effect?
Result block: 3.72

Query block: Entry under review: `Cc1ncc([N+](=O)[O-])n1CCO` . Reported inhibition of SARS-CoV-2 cytopathic effect?
Result block: 0.19

----------
System: Vero E6 infected with SARS-CoV-2
procedure.details: morphology score (similarity to uninfected cells); higher = more like uninfected cells
test.settings: 24 h
# reported morphology score; entries follow
Lab note: write the figure by itself, no unit.

O=C(c1c(F)ccc(NS(=O)(=O)N2CC[C@@H](F)C2)c1F)c1c[nH]c2ncc(-c3cnc(C4CC4)nc3)cc12 (10 µM) ... 0.162
CC[C@H](NC(=O)c1c(O)c(-c2ccccc2)nc2ccccc12)c1ccccc1 [talnetant] (10 µM) ... -0.0287
Cc1ccccc1-n1c(Cn2nc(-c3cccc(O)c3)c3c(N)ncnc32)nc2cccc(C)c2c1=O (10 µM) ... 0.0603
CCCCNc1ncc(-c2ccc(CN3CCOCC3)cn2)c(N[C@H]2CC[C@H](O)CC2)n1 (10 µM) ... 0.102
Cc1[nH]c(/C=C2\C(=O)Nc3ccccc32)c(C)c1CCC(=O)O [orantinib] (10 µM) ... 0.123

Query block: Entry under review: C=C1/C(=C\C=C2/CCC[C@]3(C)[C@@H]([C@H](C)OCCC(C)(C)O)CC[C@@H]23)C[C@@H](O)C[C@@H]1O [maxacalcitol] (10 µM) . Reported morphology score?
Result block: -0.0664

Query block: Entry under review: O=C(N[C@H]1CN2CCC1CC2)c1ccc2c(c1)OCCO2 (10 µM) . Reported morphology score?
Result block: -0.0253

----------
Tested on: Vero E6 infected with SARS-CoV-2
procedure.details: inhibition of SARS-CoV-2 cytopathic effect; higher = more antiviral protection, active = above 15
test.settings: 100 nM; 48 h
recorded.metric: inhibition of SARS-CoV-2 cytopathic effect

Worked examples, 2 molecules total:
O=C(c1ccc(F)cc1)C1CCN(CCn2c(=S)[nH]c3ccccc3c2=O)CC1 ... 0.34% (inactive)
CNC(=O)Oc1cccc2ccccc12 ... 0.05% (inactive)

Query block: Entry under review: N=C(N)c1ccc(/N=N/Nc2ccc(C(=N)N)cc2)cc1 [diminazene-aceturate] . Reported inhibition of SARS-CoV-2 cytopathic effect?
Result block: -3.27% (inactive)

Query block: Entry under review: `O=C1COc2c(CCNCCN(C(=O)CCNCCc3ccc(Cl)c(Cl)c3)C3CCCCC3)ccc(O)c2N1` . Reported inhibition of SARS-CoV-2 cytopathic effect?
Result block: -5.93% (inactive)

Query block: Entry under review: `CCOC(=O)[C@H](CCc1ccccc1)N[C@H]1CCc2ccccc2N(CC(=O)O)C1=O` . Reported inhibition of SARS-CoV-2 cytopathic effect?
Result block: 3.52% (inactive)

Query block: Entry under review: `CNCCCOc1cc(F)c(-c2c(Cl)nc3ncnn3c2N[C@@H](C)C(F)(F)F)c(F)c1` . Reported inhibition of SARS-CoV-2 cytopathic effect?
Result block: 2.89% (inactive)

Query block: Entry under review: `CC(C)N[C@H]1CCn2c(=O)[nH]c3cccc(c32)[C@@H]1O` . Reported inhibition of SARS-CoV-2 cytopathic effect?
Result block: -1.14% (inactive)

Query block: Entry under review: `CCOc1ccc2ccccc2c1C(=O)N[C@@H]1C(=O)N2[C@@H]1SC(C)(C)[C@@H]2C(=O)O` . Reported inhibition of SARS-CoV-2 cytopathic effect?
Result block: -1.26% (inactive)

Query block: Entry under review: `O=C(O)c1ccc(S(=O)(=O)N(Cl)Cl)cc1` . Reported inhibition of SARS-CoV-2 cytopathic effect?
Result block: -0.73% (inactive)

Query block: Entry under review: `O=C(OC(C(F)(F)F)C(F)(F)F)N1CCN(Cc2cccc(Oc3ccccc3)c2)CC1` . Reported inhibition of SARS-CoV-2 cytopathic effect?
Result block: 3.33% (inactive)

Query block: Entry under review: Cc1ncc(C[n+]2csc(CCOP(=O)(O)OP(=O)(O)O)c2C)c(N)n1 [thiamine-pyrophosphate] . Reported inhibition of SARS-CoV-2 cytopathic effect?
Result block: -0.57% (inactive)

Query block: Entry under review: `COc1ccc2c(c1)/C(=C/c1cnc[nH]1)C(=O)N2` . Reported inhibition of SARS-CoV-2 cytopathic effect?
Result block: -1.87% (inactive)

Query block: Entry under review: `COc1ccc(-c2oc3cc(OC)ccc3c2C(=O)c2ccc(C#N)cc2)cc1` . Reported inhibition of SARS-CoV-2 cytopathic effect?
Result block: -3.03% (inactive)

Query block: Entry under review: `NS(=O)(=O)c1cccc2c1c([N+](=O)[O-])cc1nc(O)c(O)nc12` . Reported inhibition of SARS-CoV-2 cytopathic effect?
Result block: 2.47% (inactive)

Query block: Entry under review: `Nc1n[n+]([O-])c2ccccc2[n+]1[O-]` . Reported inhibition of SARS-CoV-2 cytopathic effect?
Result block: 2.11% (inactive)

Query block: Entry under review: C[C@H](CCC(=O)O)[C@H]1CC[C@H]2[C@@H]3C(=O)C[C@@H]4CC(=O)CC[C@]4(C)[C@H]3CC(=O)[C@]12C [dehydrocholate-acid] . Reported inhibition of SARS-CoV-2 cytopathic effect?
Result block: -2.25% (inactive)

Query block: Entry under review: `CNc1cc2c(Nc3cccc(Br)c3)ncnc2cn1` . Reported inhibition of SARS-CoV-2 cytopathic effect?
Result block: -1.36% (inactive)

Query block: Entry under review: `O=[N+]([O-])c1cccc2cn[nH]c12` . Reported inhibition of SARS-CoV-2 cytopathic effect?
Result block: 3.57% (inactive)

Query block: Entry under review: NC(=O)c1cccc(N)c1 [3-amino-benzamide] . Reported inhibition of SARS-CoV-2 cytopathic effect?
Result block: -0.7% (inactive)

----------
System: Vero E6 infected with SARS-CoV-2
procedure.details: inhibition of SARS-CoV-2 cytopathic effect; higher = more antiviral protection, active = above 15
test.settings: 1 nM; 48 h
recorded.metric: inhibition of SARS-CoV-2 cytopathic effect

CC(C)c1cc(CNc2nc(Nc3cc(C4CC4)[nH]n3)cc(N3CCN(C)CC3)n2)on1 ... 0.13% (inactive)

Query block: Entry under review: `O=C(O)/C=C/c1ccc(O)c(O)c1` . Reported inhibition of SARS-CoV-2 cytopathic effect?
Result block: 2.05% (inactive)

Query block: Entry under review: `N[C@H]1CCN(O)C1=O` . Reported inhibition of SARS-CoV-2 cytopathic effect?
Result block: -2.5% (inactive)

Query block: Entry under review: CC[N+](C)(CC)CC(=O)Nc1c(C)cccc1C [N-methyllidocaine-iodide] . Reported inhibition of SARS-CoV-2 cytopathic effect?
Result block: 1.32% (inactive)

Query block: Entry under review: `N[C@@H](CC(=O)N1CCn2c(nnc2C(F)(F)F)C1)Cc1cc(F)c(F)cc1F` . Reported inhibition of SARS-CoV-2 cytopathic effect?
Result block: -0.24% (inactive)

Query block: Entry under review: `Cc1cc2ncc(C(=O)NCC(C)(C)NCC(=O)N3CCC[C@H]3C#N)cn2n1` . Reported inhibition of SARS-CoV-2 cytopathic effect?
Result block: -0.17% (inactive)

Query block: Entry under review: `C[C@@H]1CC(=O)NN=C1c1ccc(NN=C(C#N)C#N)cc1` . Reported inhibition of SARS-CoV-2 cytopathic effect?
Result block: -0.58% (inactive)

Query block: Entry under review: `C=C[C@]1(C)CC[C@@H](C(=C)C)C[C@H]1C(=C)C` . Reported inhibition of SARS-CoV-2 cytopathic effect?
Result block: 2.14% (inactive)

Query block: Entry under review: O=P(O)(O)C(O)(Cc1cccnc1)P(=O)(O)O [risedronate] . Reported inhibition of SARS-CoV-2 cytopathic effect?
Result block: -0.54% (inactive)

Query block: Entry under review: `C=C(NC(=O)C(=C)NC(=O)c1csc(C2=N[C@@H]3c4csc(n4)[C@H]4NC(=O)c5csc(n5)[C@H]([C@](C)(O)[C@@H](C)O)NC(=O)[C@H]5CSC(=N5)/C(=C/C)NC(=O)[C@H]([C@@H](C)O)NC(=O)c5csc(n5)[C@]3(CC2)NC(=O)[C@H](C)NC(=O)C(=C)NC(=O)[C@H](C)NC(=O)[C@H]([C@@H](C)CC)N[C@@H]2C=Cc3c([C@H](C)O)cc(nc3[C@H]2O)C(=O)O[C@@H]4C)n1)C(N)=O` . Reported inhibition of SARS-CoV-2 cytopathic effect?
Result block: -2.64% (inactive)

Query block: Entry under review: CC(C)(C)c1ccc(CN2CCN(C(c3ccccc3)c3ccc(Cl)cc3)CC2)cc1 (stereo not drawn) . Reported inhibition of SARS-CoV-2 cytopathic effect?
Result block: -1.54% (inactive)

Query block: Entry under review: `Cc1ncc([N+](=O)[O-])n1CCO` . Reported inhibition of SARS-CoV-2 cytopathic effect?
Result block: 1.71% (inactive)

Query block: Entry under review: `CS(=O)(=O)Oc1ccc2c(NC(N)=O)c(C(=O)c3ccc(Cl)cc3Cl)oc2c1` . Reported inhibition of SARS-CoV-2 cytopathic effect?
Result block: -4.96% (inactive)

Query block: Entry under review: `CN1C(C)(C)CCCC1(C)C` . Reported inhibition of SARS-CoV-2 cytopathic effect?
Result block: -2.83% (inactive)

Query block: Entry under review: `COC(=O)[C@H]1[C@H]2C[C@@H]3c4[nH]c5cc(OC)ccc5c4CCN3C[C@H]2C[C@@H](OC(=O)c2cc(OC)c(OC)c(OC)c2)[C@@H]1OC` . Reported inhibition of SARS-CoV-2 cytopathic effect?
Result block: 1.33% (inactive)

Query block: Entry under review: `O=C(Nc1ccccc1)Nc1ccc(-c2ccc(C(=O)[C@@H]3CCC[C@@H]3C(=O)O)cc2)cc1` . Reported inhibition of SARS-CoV-2 cytopathic effect?
Result block: -1.33% (inactive)

Query block: Entry under review: CN1C(=O)COc2c(C(=O)NC3CN4CCC3CC4)cc(Cl)cc21 (stereo not drawn) . Reported inhibition of SARS-CoV-2 cytopathic effect?
Result block: 1.97% (inactive)

Query block: Entry under review: `O=C(O)c1cccnc1Nc1cccc(C(F)(F)F)c1` . Reported inhibition of SARS-CoV-2 cytopathic effect?
Result block: 1.14% (inactive)

Query block: Entry under review: `Cc1ncc[nH]1` . Reported inhibition of SARS-CoV-2 cytopathic effect?
Result block: -0.11% (inactive)

Query block: Entry under review: `Oc1ccc(-c2c(-c3ccccc3)nn3c(C(F)(F)F)cc(C(F)(F)F)nc23)cc1` . Reported inhibition of SARS-CoV-2 cytopathic effect?
Result block: 0.08% (inactive)

Query block: Entry under review: `O=C(CCN1CCN(C(=O)OCc2cc(Cl)cc(Cl)c2)CC1)c1ccc2[nH]c(=O)oc2c1` . Reported inhibition of SARS-CoV-2 cytopathic effect?
Result block: 3.18% (inactive)
